System: HepG2 monocultures and different co-cultures of HepG2 and M1-THP-1 cells
TEST_NAME: Concentration-dependent toxicity compared across test systems (MTT viability)
Assay type: cell-based
SETUP_CONDITIONS: 24 h exposure, Figure 6
EXPERIMENTAL_ENDPOINT: concentrations producing significant cell death / decrease in viability

In plain terms, C[C@H]1COc2c(N3CCN(C)CC3)c(F)cc3c(=O)c(C(=O)O)cn1c23 [Levofloxacin] has a documented concentrations producing significant cell death / decrease in viability of > 750 µM
